Task for the reader: assign each of the following molecules its reported melting point.
Counter-ions that a name gives are not always drawn.

Exercise: Please look up its melting point: COc1cccc(-c2ccc3c(n2)CC2(CCCC2)CC3=O)c1 (as salt: hydrochloride)
Key: 233 to 234 °C

Exercise: Requested read-out: melting point. Entry: C=C(C)CSc1nc2c(cc1C#N)C(=O)CC(C)(C)C2
Key: 78 to 79 °C

Exercise: Which melting point is reported for this molecule? Cl.O=C1CCCc2nc(Cc3ccccc3)ccc21
Key: 185 to 187 °C

Exercise: Consider the molecule shown here: CCC1CC(=O)c2ccc(-c3ccc(OC)cc3)nc2C1 (centres unmarked) (as salt: hydrochloride) What is its recorded melting point?
Key: 232 to 233 °C

Exercise: Record request: melting point value, item CC(C)Sc1nc2c(cc1C#N)C(=O)CC(C)(C)C2
Key: 135 to 136 °C
